Assay read-out IC50 on Serine/threonine-protein kinase 3 (Homo sapiens, UniProt Q13188); records merged from the literature.
Sequence (Q13188 whole entry): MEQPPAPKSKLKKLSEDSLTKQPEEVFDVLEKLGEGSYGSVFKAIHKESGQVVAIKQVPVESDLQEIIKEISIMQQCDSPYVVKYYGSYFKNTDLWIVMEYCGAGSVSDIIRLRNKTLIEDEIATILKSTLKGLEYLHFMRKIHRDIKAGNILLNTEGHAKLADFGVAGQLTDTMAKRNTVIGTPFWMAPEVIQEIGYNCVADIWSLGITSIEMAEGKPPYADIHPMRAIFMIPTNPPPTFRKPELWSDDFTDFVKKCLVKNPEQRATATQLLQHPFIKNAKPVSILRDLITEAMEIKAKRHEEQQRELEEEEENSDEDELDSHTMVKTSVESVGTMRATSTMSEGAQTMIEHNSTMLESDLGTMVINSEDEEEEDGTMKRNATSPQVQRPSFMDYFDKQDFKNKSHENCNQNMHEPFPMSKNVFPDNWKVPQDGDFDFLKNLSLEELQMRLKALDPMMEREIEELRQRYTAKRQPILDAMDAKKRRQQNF
Property label: IC50

>>> result("Clc1ccc(-c2ccc(-c3nccn3-c3ccc(N4CCNCC4)cc3)o2)cc1")
"> 30 µM"
>>> result("Cc1cn2c(-c3cn[nH]c3)cnc2c(Nc2cc(Cc3ccccn3)ns2)n1")
"> 0.5 µM"
>>> result("O=C(Nc1ccc(N2CCNCC2)cc1)c1ccc(-c2ccc(Cl)cc2)o1")
"> 30 µM"
>>> result("CC(=O)c1ccc(N2CCN(C(=O)CN3CC[C@@H](C(=O)Nc4ccc(O)c(Cl)c4)C3)CC2)cc1")
"> 30 µM"
>>> result("Cc1cc(-c2cnc(Nc3cc(Cl)cc(Cl)c3)nc2NC2CCC(N(C)C)CC2)on1 (stereo not drawn)")
"0.47 µM"
>>> result("CCN(CCO)Cc1cc(Nc2nc(C)cn3c(-c4cn[nH]c4)cnc23)sn1")
"> 0.5 µM"
>>> result("O=C1c2oc(-c3ccc(Cl)cc3)cc2Cc2cc(N3CCNCC3)ccc2N1Cc1ccccc1-c1cccnc1")
"> 12 µM"
>>> result("CC(C)(C)NS(=O)(=O)c1cncc(-c2ccn3nc(N)nc3c2)c1")
"> 10 µM"
